Reported GI50 is given for each of the following molecules.
# System: NCI-H226 lung
# TEST: NCI tumour cell line growth inhibition, 48 h

• O=C1/C(=C/c2ccc(Br)cc2)COc2ccc(O)c(O)c21 = 2.01 µM
• COc1cc2nc(-c3ccc(Cl)cc3)cc(OCCCN3CCCCC3)c2cc1OC = 1.12 µM
• CCN1CCN(C(c2ccc(C(F)(F)F)cc2)c2ccc3cccnc3c2O)CC1 (configuration not stated) = 3.09 µM
• COc1ccc(/C=C(/C(=O)N2CCN(c3ccccc3)CC2)c2cc(OC)c(OC)c(OC)c2)cc1O = 60.9 µM
• C=C1C(=O)O[C@@H]2C[C@@H]1CC/C(C)=C/CC/C(C)=C/CC[C@@]2(C)O = 4.54 µM
• C=CCCCCC/C=C\[C@H](O)C#CC#C/C=C/CO = 15.2 µM

// GI50 lookup, molecule = "CC(C)=CC/C=C(/C)[C@H]1CC[C@]2(C)[C@@H]1CC[C@@H]1[C@@]3(C)CCCNC(C)(C)[C@@H]3CC[C@]12C" , result: 3.75 µM

* * *

# Tested on: UO-31 renal
# TEST: NCI tumour cell line growth inhibition, 48 h
Label rule met when TGI is at or above 10 µM; otherwise label rule not met.

As a guide, the following entries are already answered.
- CCOc1ccccc1C=C1c2ccccc2C(=O)c2ccccc21: rule met
- COC(=O)c1cc2c(s1)C(=O)c1ccccc1-2: rule met
- N#Cc1nc2ccccc2nc1N1CCN(c2ccc([N+](=O)[O-])cc2)CC1: rule met
- Nc1ccc2c(c1)N(C(=O)c1cc3cc(NC(=O)c4cc5ccccc5o4)ccc3[nH]1)CC2CCl (stereo not given): rule met
- C=COCCCOc1ccccc1: rule met

// query For this molecule, is measured TGI 10 µM or higher? "CCCCCCNC(=O)c1cc(NCc2cc(O)ccc2O)ccc1O"
// result rule not met

// query Could you tell me if the measured TGI of "CS(=O)(=O)O[C@H]1CN2C[C@@H](O)[C@@H](O)[C@H]2[C@H]1CO" reaches 10 µM or more?
// result rule met

// query Does CC(=O)Nc1ccc(C(=O)NN2C(=O)CSC2c2ccc([N+](=O)[O-])cc2)cc1 (stereo not given) have a reported TGI of at least 10 µM?
// result rule met

// query Item "COc1cc([C@H]2Oc3cc(O)c4c(=O)cc(-c5ccccc5)oc4c3O[C@@H]2CO)ccc1O" with TGI of 10 µM or above?
// result rule met

// query Kindly determine if TGI recorded for CCN1CCN(C(c2ccc(C(F)(F)F)cc2)c2ccc3cccnc3c2O)CC1 (stereo not given) is above or exactly 10 µM.
// result rule not met

* * *

Entries and their TGI values follow.
# Test system: HCT-15 colon
# TEST: NCI tumour cell line growth inhibition, 48 h

For "Nc1ccc(-c2nc3cc(F)ccc3s2)cc1Cl" the molecule record lists TGI as > 100 µM

The molecule listed as COC(=O)C1=C(C)NC2=C(C(=O)c3ccccc32)C1c1cn(-c2ccccc2)nc1-c1ccccc1 (stereo unspecified) has a reported TGI of > 100 µM

Kindly note the recorded TGI for "CN(C)c1ccc(C(C=C2c3ccccc3Sc3ccccc32)=C(C#N)C#N)cc1" , which is > 100 µM

Noted for COc1cccc2c1OC(c1ccc(Cl)cc1)C([N+](=O)[O-])=C2 (stereo unspecified) : its TGI reads 10.8 µM

The reported value for CCCCCCCCCC1(N=[N+]=[N-])C(=O)c2ccccc2N(C)C1=O (stereo unspecified) in terms of TGI is > 100 µM

"CN=c1nc2sc3c(c2c(NC(=S)NC)s1)CCCC3" yielded TGI of > 100 µM

// field: TGI; key: "CC1(C)CC(=O)c2[nH]c3ccccc3c2CC(=O)NCCc2cn1cn2" ; value = > 100 µM

For COc1ccc2c(c1)CCCC(Br)C2=O (stereo unspecified) the molecule record lists TGI as 12.7 µM

// sample Cc1ccc(NC(=O)C(=O)C(C(=O)c2ccc3ccccc3c2)C2OC(=O)c3ccccc32)cc1C (stereo unspecified) , its TGI was 24.2 µM

* * *

# System: SF-539 CNS
# TEST: NCI tumour cell line growth inhibition, 48 h; in the data active = GI50 below about 0.43 µM; inactive = the rest
Return exactly one item of active, inactive

- C=C1C(=O)O[C@@H]2C[C@@H]1CC/C(C)=C/CC/C(C)=C/CC[C@@]2(C)O: inactive
- COc1ccc(/C=C(/C(=O)N2CCN(c3ccccc3)CC2)c2cc(OC)c(OC)c(OC)c2)cc1O: active
- O=C(Nc1ccc(Cl)cc1F)c1ccccc1O: inactive
- O=C(CNc1ccc(Cl)cc1)Nc1ccc(-c2nc3ccccc3s2)cc1: inactive
- COc1ccc(CN2C(=O)/C(=C\C(=O)c3ccc(OCCN4CCCCC4)cc3)c3ccccc32)cc1: inactive

// query Recorded test outcome, item "COc1cnc2c(c1)C(=O)c1c-2n(CCCNC(C)C)c(=O)c2cc(Cl)ccc12"
// result inactive

* * *

# System: NCI-H522 lung
# TEST: NCI tumour cell line growth inhibition, 48 h
MEASUREMENT KIND: TGI

- COc1ccc2c(c1)CCCC(Br)C2=O (configuration not stated): 0.837 µM
- CC(C)CCN1c2nc(Nc3cc(F)c(O)c(F)c3)ncc2N(C)C(=O)C1C (configuration not stated): 22.4 µM
- Cn1nc(N)c2cc([C@@H]3Nc4ccc5[nH]ncc5c4[C@H]4C5CCC(C5)[C@@H]34)ccc21 (some centres not stated): 24 µM
- CCOC(=O)C1(C#N)C(c2ccccc2)CC(O)(c2ccc(OC)cc2)C(C(=O)c2ccc(OC)cc2)C1c1ccccc1 (configuration not stated): > 100 µM
- CN1CCN(C(=O)CCNC(=O)Cc2ccc(C(=O)c3ccccc3)cc2)CC1: > 100 µM

Switching to the query record.
Measured TGI (NCI-H522 lung), entry O=C(O)C1C2C=CC(O2)C1C(=O)NCc1ccccn1 (configuration not stated) : > 100 µM

* * *

# Tested on: SNB-19 CNS
# TEST: NCI tumour cell line growth inhibition, 48 h; in the data active = GI50 below about 0.43 µM; inactive = the rest
Outcomes you can answer with include only these: Y (active), N (inactive)

Look over these answered cases.
- CCN(CC)c1ccc2c(c1)OC(N)=C(C#N)C2c1cc(OC)c2c(c1)OCO2 (stereo not drawn): Y
- CCOC(=O)CCCn1c(SC)nc2[nH]cc(-c3ccccc3)c2c1=O: N

// query // param item: "O=C(CNc1ccc(Cl)cc1)Nc1ccc(-c2nc3ccccc3s2)cc1" ; yields the recorded call
// result N

// query Identify the outcome logged in this assay for the compound shown: "COc1ccc(-n2cc(-c3cc(OC)c(OC)c(OC)c3)c(C(=O)C(F)(F)F)c2C)cc1"
// result N

// query Tell me the assay call for "O=C1NC(=O)C(c2cnc3ccccn23)=C1c1cn2c3c(cc(F)cc13)CN(C(=O)N1CCCCC1)CC2" please.
// result N

// query Hi, sorry to bother you, what did the test record for "Cc1ccc(C)c(C2=C(c3cn(C)c4ccccc34)C(=O)NC2=O)c1" ?
// result N

// query For "N#CC(=C1C=CC(=NO)C=C1)c1ccccc1" , what call appears in the results of this test?
// result N

// query Which outcome did this test record for the compound "CC(C)=CC/C=C(/C)[C@H]1CC[C@]2(C)[C@@H]1CC[C@@H]1[C@@]3(C)CCCNC(C)(C)[C@@H]3CC[C@]12C" ?
// result N

// query Would you mind telling me which call this test gave "C=CCCCCC/C=C\[C@H](O)C#CC#C/C=C/CO" ?
// result N

// query So what was the verdict on "COc1cc2nc(-c3ccc(Cl)cc3)cc(OCCCN3CCCCC3)c2cc1OC" in this test?
// result N

// query Each compound tested received a call. Report the one for N#Cc1c(NN)n(C2OC(CO)C(O)C2O)c2ncnc(N)c12 (stereo not drawn) .
// result Y

// query For "C=C(CNCc1ccccc1)c1ccc(C(=O)Nc2ccccc2N)cc1" , which call appears in the assay record?
// result N

// query Which result was noted for this compound in the test: "Cn1c2ccccc2c2c3c(c4c5cc(Br)ccc5n(C)c4c21)C(=O)N(O)C3=O"
// result Y

// query What call does the record list for "O=C(Cc1ccc(/C=C/C(=O)c2ncc[nH]2)cc1)Nc1cc(F)c(F)c(F)c1" ?
// result N

// query Short answer needed: outcome of this test for "Cn1cc(CO)c2c1C(=O)C=C(N1CC1)C2=O" ?
// result Y

// query Which outcome did this test record for the compound CC(C)CCN1c2nc(Nc3cc(F)c(O)c(F)c3)ncc2N(C)C(=O)C1C (stereo not drawn) ?
// result N

// query // return assay outcome for COc1ccc(C(C)=O)cc1N1C(=O)C2C(C1=O)C1(c3ccccc3)C(=O)C2(c2ccccc2)C(c2ccc(C)cc2)=C1c1ccc(C)cc1 (stereo not drawn)
// result N

// query Which outcome did this test record for the compound "CCN(CC)CCOc1ccc(-c2nc3cc(Cl)ccc3s2)cc1" ?
// result N
